Where these numbers come from: paper PMC12461331

// values below are reported AC50
test system: SARS-CoV-2; assay: microbe, parasite or virus in culture; conditions: Severe acute respiratory syndrome coronavirus 2, HeLa-ACE2, read-out: Log AC50 (converted)
Structures can show the parent of a compound that is named as a salt.

Compound	Target or test system	AC50
Cc1ccc(CNC(=O)C2CCN([C@@H](C)c3cccc4ccccc34)CC2)cc1 (stereo in doubt)	SARS-CoV-2	> 9.61 µM
CC(c1cccc2ccccc12)N1CCC(C(=O)NCc2ccc(Cl)cc2)CC1 (stereo not drawn)	SARS-CoV-2	3.71 µM
COc1ccc(C[C@H](N)C(=O)N[C@H]2[C@@H](O)[C@H](n3cnc4c(N(C)C)ncnc43)O[C@@H]2CO)cc1 [Puromycin dihydrochloride, reference compound]	SARS-CoV-2	0.381 µM
Cc1cccc(/C=N/Nc2cc(N3CCOCC3)nc(OCCc3ccccn3)n2)c1 [Apilimod, reference compound]	SARS-CoV-2	0.0256 µM
C[C@H](c1cccc2ccccc12)N1CCC(C(=O)NCc2ccc(Cl)cc2)CC1	SARS-CoV-2	2.97 µM
C[C@@H](c1cccc2ccccc12)N1CCC(C(=O)NCc2ccncc2)CC1 (racemic)	SARS-CoV-2	> 9.61 µM
Cc1ccc(CNC(=O)C2CCN([C@H](C)c3cccc4ccccc34)CC2)cc1	SARS-CoV-2	> 9.61 µM
CCC(CC)COC(=O)[C@H](C)N[P@](=O)(OC[C@H]1O[C@@](C#N)(c2ccc3c(N)ncnn23)[C@H](O)[C@@H]1O)Oc1ccccc1 [Remdesivir, reference compound]	SARS-CoV-2	0.0952 µM
COc1ccc(CNC(=O)C2CCN(C(C)c3cccc4ccccc34)C2)cc1 (stereo not drawn)	SARS-CoV-2	6.48 µM

* * *

conditions: female, BALB/c, mouse, 1 h, 2 μM, pH 7.4
Could you mark each record Condition met if its plasma stability remaining 60 min falls strictly under 80%, and Condition not met if it equals or exceeds it?

> print(dat)
                                    compound     category.label
 1  CC[C@@H](C)N1CCC(C(=O)NCc2ccc(OC)cc2)CC1 (racemic)      Condition met
 2  COc1ccc(CNC(=O)[C@H]2CCN([C@H](C)c3cccc4ccccc34)C2)cc1  Condition not met
 3  COc1ccc(CNC(=O)C2CCN(Cc3cccc4ccccc34)CC2)cc1      Condition met
 4  C[C@@H](c1cccc2ccccc12)N1CCC(C(=O)NCc2ccncc2)CC1 (racemic)  Condition not met
 5  Cc1ccc(CNC(=O)C2CCN([C@@H](C)c3cccc4ccccc34)CC2)cc1 (stereo in doubt)      Condition met
 6  C[C@H](c1cccc2ccccc12)N1CCC(C(=O)NCc2ccc(Cl)cc2)CC1  Condition not met
 7  COc1ccc(CNC(=O)[C@@H]2CCN([C@H](C)c3cccc4ccccc34)C2)cc1 (stereo in doubt)      Condition met
 8  COc1ccc(CC(=O)NC2CCN([C@@H](C)c3cccc4ccccc34)CC2)cc1  Condition not met
 9  COc1ccc(CNC(=O)C2CCN([C@@H](C)c3ccccc3)CC2)cc1  Condition not met
10  C[C@@H](c1cccc2ccccc12)N1CCC(C(=O)NCC2CCCCC2)CC1 (racemic)      Condition met
11  COc1ccc(CNC(=O)C2CCN([C@H](C)c3ccccc3)CC2)cc1  Condition not met
12  CC(c1cccc2ccccc12)N1CCC(C(=O)NCc2ccc(Cl)cc2)CC1 (stereo not drawn)      Condition met
13  COc1ccc(CC(=O)NC2CCN([C@H](C)c3cccc4ccccc34)CC2)cc1  Condition not met
14  Cc1ccc(CNC(=O)C2CCN([C@H](C)c3cccc4ccccc34)CC2)cc1      Condition met

* * *

test: in vitro; details: human, uninfected HeLa-ACE2 cells, uninfected HeLa-ACE2 CC50, supplement summary
Structures can show the parent of a compound that is named as a salt.
// values below are reported CC50 at 24 h
Measure name: CC50 at 24 h (µM)

Molecule	Operator	Value
COc1ccc(CNC(=O)C2CCN(C(C)c3cccc4ccccc34)C2)cc1 (stereo not shown)	=	29.6
COc1ccc(C[C@H](N)C(=O)N[C@H]2[C@@H](O)[C@H](n3cnc4c(N(C)C)ncnc43)O[C@@H]2CO)cc1 [Puromycin dihydrochloride, reference compound]	=	0.578
CC(c1cccc2ccccc12)N1CCC(C(=O)NCc2ccc(Cl)cc2)CC1 (stereo not shown)	=	18.9
C[C@H](c1cccc2ccccc12)N1CCC(C(=O)NCc2ccc(Cl)cc2)CC1	=	14.5
CCC(CC)COC(=O)[C@H](C)N[P@](=O)(OC[C@H]1O[C@@](C#N)(c2ccc3c(N)ncnn23)[C@H](O)[C@@H]1O)Oc1ccccc1 [Remdesivir, reference compound]	=	2.15
Cc1cccc(/C=N/Nc2cc(N3CCOCC3)nc(OCCc3ccccn3)n2)c1 [Apilimod, reference compound]	=	5.71
C[C@@H](c1cccc2ccccc12)N1CCC(C(=O)NCC2CCCCC2)CC1 (racemic)	>	39.8
C[C@@H](c1cccc2ccccc12)N1CCC(C(=O)NCc2ccncc2)CC1 (racemic)	>	39.8
Cc1ccc(CNC(=O)C2CCN([C@H](C)c3cccc4ccccc34)CC2)cc1	>	39.8
Cc1ccc(CNC(=O)C2CCN([C@@H](C)c3cccc4ccccc34)CC2)cc1 (stereo in doubt)	>	39.8

* * *

test system: SARS-CoV-2; details: HeLa-ACE2
Where a name gives a salt, the structure may show the parent alone.
Measure name: CoV2 Efficacy (delta S0:Sinf)

Compound	Target or test system	Value
Cc1cccc(/C=N/Nc2cc(N3CCOCC3)nc(OCCc3ccccn3)n2)c1 [Apilimod, reference compound]	SARS-CoV-2	96.257
COc1ccc(C[C@H](N)C(=O)N[C@H]2[C@@H](O)[C@H](n3cnc4c(N(C)C)ncnc43)O[C@@H]2CO)cc1 [Puromycin dihydrochloride, reference compound]	SARS-CoV-2	109.643
Cc1ccc(CNC(=O)C2CCN([C@@H](C)c3cccc4ccccc34)CC2)cc1 (stereo in doubt)	SARS-CoV-2	105.451
CCC(CC)COC(=O)[C@H](C)N[P@](=O)(OC[C@H]1O[C@@](C#N)(c2ccc3c(N)ncnn23)[C@H](O)[C@@H]1O)Oc1ccccc1 [Remdesivir, reference compound]	SARS-CoV-2	101.769
CC(c1cccc2ccccc12)N1CCC(C(=O)NCc2ccc(Cl)cc2)CC1 (stereo not drawn)	SARS-CoV-2	104.884
Cc1ccc(CNC(=O)C2CCN([C@H](C)c3cccc4ccccc34)CC2)cc1	SARS-CoV-2	103.282
COc1ccc(CNC(=O)C2CCN(C(C)c3cccc4ccccc34)C2)cc1 (stereo not drawn)	SARS-CoV-2	107.984
C[C@@H](c1cccc2ccccc12)N1CCC(C(=O)NCc2ccncc2)CC1 (racemic)	SARS-CoV-2	103.533
C[C@H](c1cccc2ccccc12)N1CCC(C(=O)NCc2ccc(Cl)cc2)CC1	SARS-CoV-2	104.049

* * *

experiment: Mouse liver microsomal stability assay; conditions: CD1, mouse, liver microsomes, pH 7.4
Could you mark each record yes (1) if its half-life at 0.5 μM falls strictly under 9 min, and no (0) if it equals or exceeds it?

> print(dat)
                                   molecule  category.label
1  COc1ccc(CNC(=O)[C@@H]2CCN([C@H](C)c3cccc4ccccc34)C2)cc1 (stereo in doubt) [Compound 18]         yes (1)
2  C[C@@H](c1cccc2ccccc12)N1CCC(C(=O)NCC2CCCCC2)CC1 (racemic) [Compound 11]         yes (1)
3  COc1ccc(CNC(=O)[C@@H]2CCN([C@@H](C)c3cccc4ccccc34)C2)cc1 [Compound 15]         yes (1)
4  COc1ccc(CC(=O)NC2CCN([C@@H](C)c3cccc4ccccc34)CC2)cc1 [Compound 7]         yes (1)
5  Cc1ccc(CNC(=O)C2CCN([C@@H](C)c3cccc4ccccc34)CC2)cc1 (stereo in doubt) [Compound 5]          no (0)

* * *

assay: physchem; details: pH 7.4
Could you mark each record True if its chromatographic logD falls strictly under 4, and False if it equals or exceeds it?

> print(dat)
                                   molecule  category.label
1  COc1ccc(CNC(=O)C2CCN([C@@H](C)c3ccccc3)CC2)cc1            True
2  COc1ccc(CNC(=O)[C@@H]2CCN([C@@H](C)c3cccc4ccccc34)C2)cc1           False
3  C[C@@H](c1cccc2ccccc12)N1CCC(C(=O)NCc2ccncc2)CC1 (racemic)            True
4  COc1ccc(CC(=O)NC2CCN([C@H](C)c3cccc4ccccc34)CC2)cc1           False
5  Cc1ccc(CNC(=O)C2CCN([C@H](C)c3cccc4ccccc34)CC2)cc1           False
6  Cc1ccc(CNC(=O)C2CCN([C@@H](C)c3cccc4ccccc34)CC2)cc1 (stereo in doubt)           False
7  COc1ccc(CNC(=O)C2CCN(Cc3cccc4ccccc34)CC2)cc1           False
8  COc1ccc(CNC(=O)[C@H]2CCN([C@H](C)c3cccc4ccccc34)C2)cc1           False
